# System: K4 kissing-loop RNA reporter
# PROTOCOL SUMMARY: apparent KD of K4 kissing-loop reporter; higher = weaker reporter binding
# DETAILS: Eterna round: R107; input ligand: arginine 13.2 mM

ORDERED RESIDUES	apparent KD of K4 kissing-loop reporter [nM]
GAGCCAGAGGUUGCUGCGGGUUCCAGAGAUACCAGCCGUAUUGAAGGCCCUUGGCAGCUCGAGUGAUGUUCGAGCCGCCUCUGAC [Isquleorve]	104
GGCUUACUAGUGAUGUUAGUAUUUUCUGAAGGAGCGCGUGAAAACGCAGGUAGGUCGCAGAACCUUGCCAACUAUUUUAGUUGCC [Ex Arginine A K4 28]	157
AUUUUGUUGUCAGGAUAUUAGUAUGGUUUUGGUUUGUUAGUGAUGUUGAUGGUUUGUUUAUGUAUUUAAGAAGGGAUUUAGCGGU [swwsgumullin]	463

----------
# System: MS2 coat protein
# PROTOCOL SUMMARY: apparent KD of MS2 coat protein; designed switch direction (-1 OFF switch, 1 ON switch): 1; higher = weaker reporter binding
# DETAILS: Eterna round: R95; input ligand: none

ORDERED RESIDUES	UNIT LABEL	apparent KD of MS2 coat protein
CAGCGCUGUCGAGAGGAUAUGCAGUGAUGGACAUGAGGAUCACCCAUGUUAGCGAUAGCAUUACAGUAGAAGGCUCUACAGCUGC [Soteed - 14] (puzzle: Same State 2)	nM	19.5
AUCAAAACAAGUUGCAGUGUUCGUCUUUCACAUGAGGAUCACCCAUGUAAUAGCCCAGUGGAAGCGCUCGGGCUACC [Esgevexe] (puzzle: Sensor for hsa-mir-208a)	nM	47.9
AGUCCAGCAUGAGCUGGACAAAAGCAUGUACAUGAGGAUCACCCAUGUUCAUGUACAAGCUUUUUGCUCGUCAAAAG [Mat - hsa-mir-208a - Mod of JL - 70] (puzzle: Sensor for hsa-mir-208a)	nM	320
AGUCCAGCCUGAGCUGGACAAAAGCAUGUACAUGAGGAUCACCCAUGUUCAUGUACAAGCUUUUUGCUCGUCUUAGU [salish99_208a_r3_061] (puzzle: Sensor for hsa-mir-208a)	nM	528
GCUCAUAGUAUAUGGGUACAAGCUUUUUGACAUGAGGAUCACCCAUGUACUCGUCUUAUGUGCAGUCCGUAGACUGC [JL-shm-2.21 Brourd mod] (puzzle: Sensor for hsa-mir-208a)	nM	137
UUUGGGUGGCUGGAGGAUAUCCUUGUGGUUACAUGAGGAUCACCCAUGUGCCGCGCGGUGCGCGAGGAGAAGGCUGGCGGCCGUU (puzzle: Same State 2)	nM	151
GGUUUAGUCAGGUGCAGUUGCACCUGAAAACAUGAGGAUCACCCAUGUUUGGGACAAGCUUUGCUCCUCGUCUUGCA [Orinen] (puzzle: Sensor for hsa-mir-208a)	nM	545
AGGAAGGAGGCUGAGGAUAUCGUAAGGAGGACAUGAGGAUCACCCAUGUGUAUAGGAUUGGAGGACGAGAAGGCAGAGGAGUGGG [JR_SS2_Sub049] (puzzle: Same State 2)	nM	29.4
GAAAGAGGAAGCGAGGAUAUCGUGAAGAGUACAUGAGGAUCACCCAUGUUGUAGGUAAAGGUAGGCGAGAAGGCGCAGGAGAAGA [JR_SS2_Sub0102] (puzzle: Same State 2)	nM	33.2
GGAAUCUCCAGAGAGGAUAUGCGGCGUUAAACAUGAGGAUCACCCAUGUCCUUCGAAUGGGUAACGCAGAAGGCUCUACGGUUCC [Shapeless] (puzzle: Same State 2)	nM	1220
CAGCGCUGUCGAGAGGAUAUGCGGUGAUGGACAUGAGGAUCACCCAUGUUAGCGACAGCAUCACGGCAGAAGGCUCUACCGCUGC [Soteed Omei mod 18] (puzzle: Same State 2)	nM	30.3
UACAAUCUAUCUGAGGAUAUCAUGAACAAAACAUGAGGAUCACCCAUGUGCAGGAAAACUGCAUAUGAGAAGGCAGAUAGAUUGU [Mat - Same State 2 - Mod - D22] (puzzle: Same State 2)	nM	876
UUAAGCCACGGGCAGGAUAUGUGUUAAAAUACAUGAGGAUCACCCAUGUGCAGGUGUAACACCUGACAGAAGGGCCAAUCGCGGC [Soondi - 2] (puzzle: Same State 2)	nM	56.4
UCGGGCUCUGCUCGUCUUGAGUUGCUCCCACAUGAGGAUCACCCAUGUAGUGUGCCUAUCAGCGCGCGGGUGACUUU [Riesonso] (puzzle: Sensor for hsa-mir-208a)	nM	350
GCCCAUAGUAUAUGGGUACAAGCUUUUUAACAUGAGGAUCACCCAUGUACUCGUCUUAUGUGCAGUCCGUAGACUGC [JL-shm-2.17 Brourd mod] (puzzle: Sensor for hsa-mir-208a)	nM	82.3
ACGUGGGUAUCACAGGAUAUACUCAUAACUACAUGAGGAUCACCCAUGUAGCGGUAUUCCGGUGCGUAGAAGGGUGAUGGACCAC [Same State 2 - Mod of Artece] (puzzle: Same State 2)	nM	19.9
UAGUGCUGUUGAGAGGAUAUGCGGCGACGGACAUGAGGAUCACCCAUGUUAGCGACAGCGUUGCGGCAGAAGGCUCUGCCCGCUA [Soteed Omei mod 52] (puzzle: Same State 2)	nM	33.3
AGUCCAGCCUGAGCUGGACUGAAGCAUGUACAUGAGGAUCACCCAUGUUCAUGUGCAAGCUUUUUGCUCGUCUUAUG [JL-shm-2.03 JL mod] (puzzle: Sensor for hsa-mir-208a)	nM	41.8
AAGUAACAUGAGGAUCACCCAUGUGAGGUGAGCGUAGGAUAUCGAGGAGGAAGGGUAGGUCGAGAAGGACGAGAAG [JR_SS1_Sub096] (puzzle: Same State 1)	nM	247
AUCCUACAUGAGGAUCACCCAUGUGACGCCUCAAUAGGAUAUCGGGCCCACAGUCGGGAACGAGAAGGAUUGAAGC [Beatonce] (puzzle: Same State 1)	nM	669

----------
# System: K4 kissing-loop RNA reporter
# PROTOCOL SUMMARY: apparent KD of K4 kissing-loop reporter; higher = weaker reporter binding
# DETAILS: Eterna round: R107; input ligand: tryptophan 2.4 mM
// NO strictly below 100 nM in apparent KD of K4 kissing-loop reporter; YES otherwise

ORDERED RESIDUES	TARGET	CLASS LABEL
AGAAGGAGACUUGCAACGACUCCUUCAGACUAGGAUAUCAGGAAACUGAGAAGGAGUCUACUUGCAGUGAUGUUGCAAGAAUAAU [[F]''-[K]'-[F]'-[F1]-[F2]-[K1]-[K2]_Design3]	K4 kissing-loop RNA reporter	YES
GAGCCAGAGGUUGCUGCGGGUUCCAGAGAUACCAGCCGUAUUGAAGGCCCUUGGCAGCUCGAGUGAUGUUCGAGCCGCCUCUGAC [Isquleorve]	K4 kissing-loop RNA reporter	YES
UCUGUUGUAUAUGAUACCAGCAGUGAGAGACGAGAAGUAUAGUGAUGUUAUAUGAGAGAAUGCCCUUGGCAGCGUGUGCGUGUGG [SSTheophylB.aB]	K4 kissing-loop RNA reporter	NO
AAUUUAUUAACUGAUACCAGACUUAAUAAAUUGUAAAUUACUAGUGAUGUUAGUGAAUUUGUCCCUUGGCAGCAGUAUUUAUUAA [JR_ExcTheophyB_Sub009]	K4 kissing-loop RNA reporter	YES

----------
# Tested on: K4 kissing-loop RNA reporter;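 note: bound reporter read as fluorescence of individual clusters on recovered sequencing chips by microscopy, with normalized cluster intensities fitted with a binding model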
# PROTOCOL SUMMARY: apparent KD of K4 kissing-loop reporter; higher = weaker reporter binding
# DETAILS: Eterna round: R107; input ligand: FMN 200 uM
// 0 (no) strictly below 200 nM in apparent KD of K4 kissing-loop reporter; 1 (yes) otherwise

ORDERED RESIDUES	TARGET	CLASS LABEL
AAUUUGGGUUCGGCCGCCACUCCAGUGAUGUUGGAUGGCGAAAUAAAGGCUAGACCAGGUUGCCGGAGGACCGGGAAUCCUGUAC [Qumabi]	K4 kissing-loop RNA reporter	0 (no)
CCGUAGAACGGAAGGAGCGCCAUAGAUAAGAAUUCCGUAAGUGAGUGAUGUUCACACAAAUGGCAGGUAGGUCGCCGUUAUUUAG [Arg B Ex t5]	K4 kissing-loop RNA reporter	0 (no)
AAAAUUGCGGUCGAAAGAACUUCUUGCAUACGAGGACCGGUACGGCCGCCACUCGAGUCAAGUGAUGUUUGAUAAUCUAUUAUUA [JR_ExcTryptoA_Sub012]	K4 kissing-loop RNA reporter	0 (no)
GGAUAGGACAUAGGAUAUGGGCUAGGCAAGAAUAACUUGUCUAGCAAAUCCAUGAGGAGUGAUGUUCCAGAAGGAUGUCCUAUCG [FmnBX 1 U11+A75]	K4 kissing-loop RNA reporter	1 (yes)
GCGGGCCAGACGGCCGCCACUCCGGGCAGUGAUGUUGCGAAACUUCUACUAGAGUGAUGUUCUACGAGGACCGGGUCGGAACGCG [Exclusion Tryptophan B Gf 13]	K4 kissing-loop RNA reporter	1 (yes)
